targetOfAssay: T1, Human VSIG4-L-Fc (human)
T1 construct: also called hVSIG4-L-Fc; hVSIG4-L
T1 sequence (chain, as listed by the source limits assumed): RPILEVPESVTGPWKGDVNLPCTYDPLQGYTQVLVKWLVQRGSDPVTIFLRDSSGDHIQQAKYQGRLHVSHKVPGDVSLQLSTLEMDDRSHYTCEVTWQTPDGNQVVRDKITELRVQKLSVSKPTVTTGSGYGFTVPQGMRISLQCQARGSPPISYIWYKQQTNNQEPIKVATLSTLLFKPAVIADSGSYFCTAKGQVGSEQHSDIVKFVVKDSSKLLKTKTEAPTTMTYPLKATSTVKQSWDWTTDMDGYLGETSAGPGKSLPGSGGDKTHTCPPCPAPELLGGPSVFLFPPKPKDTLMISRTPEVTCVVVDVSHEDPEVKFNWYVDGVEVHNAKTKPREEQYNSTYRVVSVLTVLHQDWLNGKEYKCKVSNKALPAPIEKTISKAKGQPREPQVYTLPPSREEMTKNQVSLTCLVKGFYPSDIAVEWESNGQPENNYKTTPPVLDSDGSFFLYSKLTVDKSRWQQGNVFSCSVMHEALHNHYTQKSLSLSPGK
methodSummary: BLI binning on hVSIG4-L-Fc, competitor 15C04 first;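 further: normalized to binding of second antibody without first competitor antibody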
observedProperty: normalized maximum binding nm shift (normalized)

INSERT INTO measurements (binder, obsvalue) VALUES
  ('16E10 mouse/human chimeric IgG4 (S228P) kappa (antibody, V domains shown) VH: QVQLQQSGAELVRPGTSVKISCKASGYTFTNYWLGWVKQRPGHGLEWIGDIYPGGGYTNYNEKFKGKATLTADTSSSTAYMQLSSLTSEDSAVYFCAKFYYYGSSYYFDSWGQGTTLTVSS VL: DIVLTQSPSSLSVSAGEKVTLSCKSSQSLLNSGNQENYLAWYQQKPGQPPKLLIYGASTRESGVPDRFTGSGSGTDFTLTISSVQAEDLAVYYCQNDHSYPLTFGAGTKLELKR', 0.89),
  ('14D12 mouse/human chimeric IgG4 (S228P) kappa (antibody, V domains shown) VH: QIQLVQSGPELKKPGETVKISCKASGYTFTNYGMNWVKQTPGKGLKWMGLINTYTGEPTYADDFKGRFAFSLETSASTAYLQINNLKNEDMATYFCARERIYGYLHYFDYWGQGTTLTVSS VL: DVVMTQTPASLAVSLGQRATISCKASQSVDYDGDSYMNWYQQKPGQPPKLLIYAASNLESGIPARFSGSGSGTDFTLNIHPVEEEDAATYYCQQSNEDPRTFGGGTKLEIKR', 0.8),
  ('12A12 mouse/human chimeric IgG4 (S228P) kappa (antibody, V domains shown) VH: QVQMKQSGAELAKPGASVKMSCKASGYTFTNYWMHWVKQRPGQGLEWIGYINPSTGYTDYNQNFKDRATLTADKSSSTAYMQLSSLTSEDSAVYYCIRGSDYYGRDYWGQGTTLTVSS VL: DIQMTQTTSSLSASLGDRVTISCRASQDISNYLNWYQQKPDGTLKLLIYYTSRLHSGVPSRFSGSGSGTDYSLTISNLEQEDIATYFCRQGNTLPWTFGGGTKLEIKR', 0.76),
  ('15C03 mouse/human chimeric IgG4 (S228P) kappa (antibody, V domains shown) VH: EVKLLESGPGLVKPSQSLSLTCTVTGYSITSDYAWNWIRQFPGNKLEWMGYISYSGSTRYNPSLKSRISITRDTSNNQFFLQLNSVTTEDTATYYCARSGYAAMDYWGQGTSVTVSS VL: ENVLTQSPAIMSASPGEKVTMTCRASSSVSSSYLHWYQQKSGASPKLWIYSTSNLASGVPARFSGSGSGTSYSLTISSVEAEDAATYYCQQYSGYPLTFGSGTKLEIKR', 0.89),
  ('13H11 mouse/human chimeric IgG4 (S228P) kappa (antibody, V domains shown) VH: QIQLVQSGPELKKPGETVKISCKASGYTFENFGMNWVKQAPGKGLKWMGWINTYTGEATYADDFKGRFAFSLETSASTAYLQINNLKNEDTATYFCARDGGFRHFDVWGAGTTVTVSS VL: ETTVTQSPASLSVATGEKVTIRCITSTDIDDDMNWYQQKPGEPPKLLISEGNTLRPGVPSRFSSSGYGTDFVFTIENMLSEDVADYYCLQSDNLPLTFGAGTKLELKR', 0.68);
